These measurements were taken from patent US20130115166A1.

# assay_system: T1, IL-23 (HEK293E-derived) (human, UniProt P29460 23-328; Q9NPF7 20-189)
# T1 sequence 1: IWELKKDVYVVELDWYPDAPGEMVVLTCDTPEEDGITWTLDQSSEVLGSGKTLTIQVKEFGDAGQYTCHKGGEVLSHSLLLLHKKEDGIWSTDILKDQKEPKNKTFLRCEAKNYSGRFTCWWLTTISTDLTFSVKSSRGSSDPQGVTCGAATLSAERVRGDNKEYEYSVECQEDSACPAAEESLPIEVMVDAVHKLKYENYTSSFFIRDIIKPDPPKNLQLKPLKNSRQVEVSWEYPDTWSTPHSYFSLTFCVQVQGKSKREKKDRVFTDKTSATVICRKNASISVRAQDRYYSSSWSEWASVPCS
# T1 sequence 2: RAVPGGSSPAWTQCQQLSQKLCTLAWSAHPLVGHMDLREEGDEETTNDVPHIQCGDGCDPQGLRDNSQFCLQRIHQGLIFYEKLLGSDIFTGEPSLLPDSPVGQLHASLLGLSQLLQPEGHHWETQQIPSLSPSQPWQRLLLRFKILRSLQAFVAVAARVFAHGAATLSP
# measurement_notes: SPR (Biacore), antibody supernatant captured on Protein A, IL-23 at 5 ug/ml as analyte
I would appreciate it if you labelled entries class 1 when koff is 0.001 s⁻¹ or higher, otherwise class 0.

These recorded examples may help you get a feel for the data.
# binder, discrete_label
measured = [
    ("16-12 (antibody, human IgG1, kappa, V domains shown, Humanized form of E11E7; also called humanized antibody 16-12) VH: QVQLQESGPGLVKPSQTLSLTCTVSGFSLISYNVHWIRQPPGKGLEWIGVIWTGGSTDYNSVLKSRVTMSRDTSKNQFSLKVNSVTAADTAVYYCARDKYGLFPGYFDYWGQGTLVTVSS VL: EIVMTQSPATLSLSPGERATLSCKPSQSLLSSGNRKNYLAWYQQKPGQAPRLLIYYASTRQSGIPARFSGSGSGTDFTLTISSLEPEDFAVYYCLQHFNYPWTFGGGTKAEIKR", "class 0"),
    ("15-12 (antibody, human IgG1, kappa, V domains shown, Humanized form of E11E7; also called humanized antibody 15-12) VH: QVQLQESGPGLVKPSQTLSLTCTVSGGSISSYNVHWIRQPPGKGLEWIGVIWTGGSTDYNSVLKSRVTMSVDTSKNQFSLKVNSVTAADTAVYYCARDKYGLFPGYFDYWGQGTLVTVSS VL: EIVMTQSPATLSLSPGERATLSCKPSQSLLSSGNRKNYLAWYQQKPGQAPRLLIYYASTRQSGIPARFSGSGSGTDFTLTISSLEPEDFAVYYCLQHFNYPWTFGGGTKAEIKR", "class 1"),
    ("14-12 (antibody, human IgG1, kappa, V domains shown, Humanized form of E11E7; also called humanized antibody 14-12) VH: QVQLQESGPGLVKPSQTLSLTCTVSGGSISSYNVHWIRQPPGKGLEWIGVIWTGGSTDYNSVLKSRVTMSRDTSKNQFSLKVNSVTAADTAVYYCARDKYGLFPGYFDYWGQGTLVTVSS VL: EIVMTQSPATLSLSPGERATLSCKPSQSLLSSGNRKNYLAWYQQKPGQAPRLLIYYASTRQSGIPARFSGSGSGTDFTLTISSLEPEDFAVYYCLQHFNYPWTFGGGTKAEIKR", "class 1"),
    ("8-22 (antibody, human IgG1, kappa, V domains shown, Humanized form of E11E7; also called humanized antibody 8-22) VH: QVQLQESGPGLVKPSETLSLTCTVSGFSLISYNVHWIRQPPGKGLEWIGVIWTGGSTDYNPSLKSRVTISRDTSKNQFSLKLSSVTAADTAVYYCARDKYGLFPGYFDYWGQGTLVTVSS VL: DIVMTQSPDSLAVSLGERATINCKPSQSLLSSGNRKNYLAWYQQKPGQPPKLLIYYASTRQSGVPDRFSGSGSGTDFTLTISSLQAEDVAVYYCLQHFNYPWTFGQGTKLEIKR", "class 0"),
]

Identify whether the reported koff of the following binder is 0.001 s⁻¹ or greater: 9-23 (antibody, human IgG1, kappa, V domains shown, Humanized form of E11E7; also called humanized antibody 9-23) VH: QVQLQESGPGLVKPSETLSLTCTVSGFSLISYNVHWIRQPPGKGLEWIGVIWTGGSTDYNPSLKSRVTISVDTSKNQFSLKLSSVTAADTAVYYCARDKYGLFPGYFDYWGQGTLVTVSS VL: DIVMTQTPLSLPVTPGEPASISCKPSQSLLSSGNRKNYLAWYLQKPGQSPQLLIYYASTRQSGVPDRFSGSGSGTDFTLKISRVEAEDVGVYYCLQHFNYPWTFGQGTKLEIKR
class 0

Identify whether the reported koff of the following binder is 0.001 s⁻¹ or greater: 11-22 (antibody, human IgG1, kappa, V domains shown, Humanized form of E11E7; also called humanized antibody 11-22) VH: QVQLQESGPGLVKPSETLSLTCTVSGGSISSYNVHWIRQPPGKGLEWIGVIWTGGSTDYNPSLKSRVTISRDTSKNQFSLKLSSVTAADTAVYYCARDKYGLFPGYFDYWGQGTLVTVSS VL: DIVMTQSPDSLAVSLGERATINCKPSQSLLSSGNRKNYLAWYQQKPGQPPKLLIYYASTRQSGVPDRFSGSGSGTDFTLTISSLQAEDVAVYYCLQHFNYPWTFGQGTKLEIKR
class 1
